Target: Muscarinic acetylcholine receptor M1 (Homo sapiens) (UniProt P11229)
Sequence (P11229 whole entry): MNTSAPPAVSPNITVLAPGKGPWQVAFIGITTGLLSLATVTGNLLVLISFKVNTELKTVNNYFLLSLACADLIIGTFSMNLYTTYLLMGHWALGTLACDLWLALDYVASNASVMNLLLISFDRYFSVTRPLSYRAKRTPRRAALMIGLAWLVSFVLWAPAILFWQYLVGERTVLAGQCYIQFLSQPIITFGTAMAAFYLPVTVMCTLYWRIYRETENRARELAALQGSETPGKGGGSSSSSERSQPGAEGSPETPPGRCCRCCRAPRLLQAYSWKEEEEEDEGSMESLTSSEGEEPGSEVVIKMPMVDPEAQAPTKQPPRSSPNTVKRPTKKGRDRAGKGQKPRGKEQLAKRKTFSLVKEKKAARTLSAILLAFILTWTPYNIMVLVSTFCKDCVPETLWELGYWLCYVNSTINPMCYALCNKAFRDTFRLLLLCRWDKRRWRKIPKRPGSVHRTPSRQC
Test: Displacement of [3H]NMS from human muscarinic M1 receptor expressed in CHO Flp-In cells after 1 hr by microbeta liquid scintillation counting-based radioligand binding assay
Type: cell-based
PROPERTY: pKb

Enquiry: So what pKb did O=c1cc(-c2ccccc2OCc2ccc(Br)cc2F)ccn1[C@H]1CCCC[C@@H]1O (racemic) get with Muscarinic acetylcholine receptor M1 (Homo sapiens) (UniProt P11229)?
Return: 4.75

Enquiry: What pKb appears in the records for this compound with Muscarinic acetylcholine receptor M1 (Homo sapiens) (UniProt P11229)? O=c1cc(-c2ccccc2OCc2ccc(-c3nccs3)cc2)ccn1[C@H]1CCCC[C@@H]1O (racemic)
Return: 4.96

Enquiry: pKb of O=C(O)c1cccc(COc2ccccc2-c2ccn([C@H]3CCCC[C@@H]3O)c(=O)c2)c1 (racemic) on Muscarinic acetylcholine receptor M1 (Homo sapiens) (UniProt P11229)?
Return: 4.04

Enquiry: Form field - read-out: pKb; system: Muscarinic acetylcholine receptor M1 (Homo sapiens) (UniProt P11229); submitted item: NC(=O)c1cccc(COc2ccccc2-c2ccn([C@H]3CCCC[C@@H]3O)c(=O)c2)c1 (racemic)
Return: 4.04

Enquiry: Muscarinic acetylcholine receptor M1 (Homo sapiens) (UniProt P11229) / pKb / CCCCn1cc(-c2ccc(COc3ccccc3-c3ccn([C@H]4CCCC[C@@H]4O)c(=O)c3)cc2)cn1 (racemic) : value?
Return: 4.86

Enquiry: Identify the measured pKb of O=c1cc(-c2ccccc2OCc2ccc(-c3cncnc3)cc2)ccn1[C@H]1CCCC[C@@H]1O (racemic) for Muscarinic acetylcholine receptor M1 (Homo sapiens) (UniProt P11229).
Return: 4.45

Enquiry: # returns recorded pKb (system: Muscarinic acetylcholine receptor M1 (Homo sapiens) (UniProt P11229)) for N#Cc1ccccc1COc1ccccc1-c1ccn([C@H]2CCCC[C@@H]2O)c(=O)c1 (racemic)
Return: 4.38

----------
Molecular target: Muscarinic acetylcholine receptor M1 (Homo sapiens) (UniProt P11229)
Test: Allosteric agonist activity at human muscarinic M1 receptor expressed in CHO Flp-In cells assessed as intrinsic activity measured as IP1 accumulation after 1 hr by HTRF method
Type: functional, cell-based
Please provide measured Intrinsic activity for the entries that follow.

Enquiry: Short answer please: Intrinsic activity, Muscarinic acetylcholine receptor M1 (Homo sapiens) (UniProt P11229), entry N#Cc1cccc(COc2ccccc2-c2ccn([C@H]3CCCC[C@@H]3O)c(=O)c2)c1 (racemic)
Return: 0.25

Enquiry: // map O=c1cc(-c2ccccc2OCc2ccccc2)ccn1[C@H]1CCCC[C@@H]1O (racemic) to recorded Intrinsic activity (system: Muscarinic acetylcholine receptor M1 (Homo sapiens) (UniProt P11229))
Return: 0.58

Enquiry: Field: Intrinsic activity (Muscarinic acetylcholine receptor M1 (Homo sapiens) (UniProt P11229)). Entry: Cn1cc(-c2ccc(CNc3ccccc3-c3ccn([C@H]4CCCC[C@@H]4O)c(=O)c3)cc2)cn1 (racemic)
Return: 0.44

Enquiry: Look up Intrinsic activity with Muscarinic acetylcholine receptor M1 (Homo sapiens) (UniProt P11229) for this compound: COc1cccc(COc2ccccc2-c2ccn([C@H]3CCCC[C@@H]3O)c(=O)c2)c1 (racemic)
Return: 1.45

Enquiry: Give Intrinsic activity (Muscarinic acetylcholine receptor M1 (Homo sapiens) (UniProt P11229)) of the following compound: COC(=O)c1cccc(COc2ccccc2-c2ccn([C@H]3CCCC[C@@H]3O)c(=O)c2)c1 (racemic)
Return: 0.15

Enquiry: Field: Intrinsic activity (Muscarinic acetylcholine receptor M1 (Homo sapiens) (UniProt P11229)). Entry: COC(=O)c1ccc(COc2ccccc2-c2ccn([C@H]3CCCC[C@@H]3O)c(=O)c2)cc1 (racemic)
Return: 0.54

Enquiry: Give Intrinsic activity (Muscarinic acetylcholine receptor M1 (Homo sapiens) (UniProt P11229)) of the following compound: COc1ccc(Cn2cc(C(=O)O)c(=O)c3ccccc32)cc1
Return: 0.22

Enquiry: Provide value of Intrinsic activity for this record tested with Muscarinic acetylcholine receptor M1 (Homo sapiens) (UniProt P11229): NC(=O)c1ccc(COc2ccccc2-c2ccn([C@H]3CCCC[C@@H]3O)c(=O)c2)cc1 (racemic)
Return: 0.89
